System: NCI-60 standardized human tumor cell line panel
Assay: cells
Type: cell-based
Conditions: cell line HOP-92 (LC:HOP-92); TMI sheet
NCI-60 screening: Log(GI50) by entry:
Give the figure by itself; no unit, no explanation.

Solved entries (count: 3):
Compound: COc1cc2cc(C(=O)N3C[C@@H](CCl)c4c3cc(OC(=O)N(CCC(=O)N3CCN(C)CC3)C3CCCCC3)c3ccccc43)[nH]c2c(OC)c1OC
Test system: NCI-60 standardized human tumor cell line panel
Measured metric: NCI-60 screening: Log(GI50)
Readout value: -5.6
--
Compound: COc1cc2cc(C(=O)N3C[C@@H](CCl)c4c3cc(OC(=O)N(CCC(=O)N3CCN(C)CC3)[C@H]3CCSSC3)c3ccccc43)[nH]c2c(OC)c1OC
Test system: NCI-60 standardized human tumor cell line panel
Measured metric: NCI-60 screening: Log(GI50)
Readout value: -6.46
--
Compound: COc1cc2cc(C(=O)N3CC(CCl)c4c3cc(OC(=O)N3CCN(C)C5CSSCC53)c3ccccc43)[nH]c2c(OC)c1OC (mixture of isomers) [Me-SS66C-CBI-TMI]
Test system: NCI-60 standardized human tumor cell line panel
Measured metric: NCI-60 screening: Log(GI50)
Readout value: -6.62

Query compound follows.
-- ask Endpoint output: NCI-60 screening: Log(GI50) of COc1cc2cc(C(=O)N3CC(CCl)c4c3cc(OC(=O)N3CCN(C)C5CSSCC53)c3ccccc43)[nH]c2c(OC)c1OC (mixture of isomers) [Me-SS66T-CBI-TMI] . Value?
-- reply -7.57

====

Test system: panel of 140 standard cancer cell lines
Experiment: ProliFiler-140 cancer cell line screen (CellTiterGlo, 72 h)
Type: cell-based
Conditions: Homo sapiens, NCI-H1299, read-out: IC50 [M] (ProliFiler-140), H1299 (Lung)
Measured metric: IC50 (M)
Just the number please, in M, no unit attached.

-- ask Which IC50 reading was recorded for the molecule COc1cc2cc(C(=O)N3C[C@@H](CCl)c4c3cc(OC(=O)N3CCN(C(=O)CCC(=O)N5CCN(C)CC5)[C@H]5CSSC[C@H]53)c3ccccc43)[nH]c2c(OC)c1OC [P-SS66C-CBI-TMI] ?
-- reply 5.38e-08

====

Test: In vivo plasma pharmacokinetics
Settings: mouse, plasma, iv; Balb/c mice, i.v. 5 mg/kg, HPLC-MS/MS
Measured metric: half-life

-- ask Data request, read-out half-life, for `CN(C(=O)Oc1cc2c(c3ccccc13)[C@H](CCl)CN2C(=O)c1cc2cc(OCCCN3CCC3)ccc2[nH]1)[C@H]1CCSSC1`
-- reply ~20 min

====

System: panel of 140 standard cancer cell lines
Assay: ProliFiler-140 cancer cell line screen (CellTiterGlo, 72 h)
Type: cell-based
Settings: Homo sapiens, LNCaP, LnCap (Prostate); read-out: IC50 [M] (ProliFiler-140)
Measured metric: IC50
Param answer (str): number followed by unit.

-- ask Find the recorded IC50 belonging to COc1cccc2c1C(=O)c1c(O)c3c(c(O)c1C2=O)C[C@@](O)(C(=O)CO)C[C@@H]3O[C@H]1C[C@H](N)[C@H](O)[C@H](C)O1 [doxorubicin, reference compound] and report it.
-- reply 1.9e-07 M

====

Here the recorded NCI-60 screening: Log(GI50) is given for each entry.
Tested on: NCI-60 standardized human tumor cell line panel
Test: cells
Type: cell-based
Conditions: cell line COLO 205 (CO:COLO 205); TMI sheet
Output: the number by itself.

Worked set:
Compound: COc1cc2cc(C(=O)N3CC(CCl)c4c3cc(OC(=O)N3CCN(C)C5CSSCC53)c3ccccc43)[nH]c2c(OC)c1OC (mixture of isomers) [Me-SS66T-CBI-TMI]
Readout value: -7.31
--
Compound: COc1cc2cc(C(=O)N3C[C@@H](CCl)c4c3cc(OC(=O)N(CCC(=O)N3CCN(C)CC3)C3CCCCC3)c3ccccc43)[nH]c2c(OC)c1OC
Readout value: -5.86
--
Compound: COc1cc2cc(C(=O)N3C[C@@H](CCl)c4c3cc(OC(=O)N(CCC(=O)N3CCN(C)CC3)[C@H]3CCSSC3)c3ccccc43)[nH]c2c(OC)c1OC
Readout value: -6.47

Now for another entry.
-- ask Write down the reported NCI-60 screening: Log(GI50) of COc1cc2cc(C(=O)N3CC(CCl)c4c3cc(OC(=O)N3CCN(C)C5CSSCC53)c3ccccc43)[nH]c2c(OC)c1OC (mixture of isomers) [Me-SS66C-CBI-TMI] , test system: NCI-60 standardized human tumor cell line panel.
-- reply -6.48
